assay: acute toxicity (LD50); settings: mouse, in vivo; mice, oral
Please respond with reported LD50 for every item in the list.

Ask: Quick check: LD50 of O=C(O)/C=C\C(=O)c1ccccc1 [Example 3, (Z) 4-phenyl-4-oxobuten-2-oic acid] ?
Reply: 370 mg/kg

Ask: Quick check: LD50 of O=C(O)/C=C/C(=O)c1ccccc1 [Example 1, (E) 4-phenyl-4-oxobuten-2-oic acid] ?
Reply: 250 mg/kg

Ask: Quick check: LD50 of Cc1ccc(C(=O)C=CC(=O)O)cc1 ?
Reply: 250 mg/kg
